# Tested on: OVCAR-3
# procedure details: NCI tumour cell line growth inhibition, 48 h
Calls of active or inactive are those of the source. Cut-off read from the data, not from the text of the source: active = GI50 up to about 1.1 µM and inactive = higher.
Answer with one of the outcomes given here: True for active, False for inactive

Before answering, review these 2 worked examples.
COc1c(CCl)cc(-c2cc(=O)c3ccccc3s2)cc1CCl ... False
CCCCCCCCCCCCOCCCOP(=O)([O-])OCC[N+](C)(C)C ... False

IN: What did this assay record as the result for CCOC(=O)c1sc2nc(SC)nc3c2c1NC(=O)CN3c1cccc(F)c1 ?
OUT: False

IN: Hi, sorry to bother you, what did the test record for C/C(=C\CO)CC/C=C(\C)CNc1ccc([N+](=O)[O-])cc1 ?
OUT: False

IN: Assay result, entry CC1(C)NC(C)(C)/C(=N\O)C(=NO)/C1=N/O — outcome?
OUT: False

IN: # outcome recorded in this test, key = CC1c2cc(c3c(c2O)CN([C@@H](C)C2CCCCC2)CO3)C(C)c2cc(c3c(c2O)CN([C@@H](C)C2CCCCC2)CO3)C(C)c2cc(c3c(c2O)CN([C@@H](C)C2CCCCC2)CO3)C(C)c2cc1c1c(c2O)CN([C@@H](C)C2CCCCC2)CO1 (some centres undefined)
OUT: False

IN: Test call for this compound, please: COC(=O)CNS(=O)(=O)c1ccc(-c2c3nc(c(-c4ccc(S(=O)(=O)NCC(=O)OC)cc4)c4ccc([nH]4)c(-c4ccc(S(=O)(=O)NCC(=O)OC)cc4)c4nc(c(-c5ccc(S(=O)(=O)NCC(=O)OC)cc5)c5ccc2[nH]5)C=C4)C=C3)cc1
OUT: False

---

# Test system: MCF7
# procedure details: NCI tumour cell line growth inhibition, 48 h
Activity calls are given as the source filed them. No stated cut-off is given here; in the data, active = GI50 up to about 1.1 µM and inactive = higher.
Give your call using only these classes: t = active, f = inactive

Before answering, review these 5 worked examples.
CCC1(C)C=Cc2c(cc(OC)c3c(=O)c4ccccc4n(C)c23)O1 (stereo unspecified) ... t
O=S(=O)(O)c1cc(/N=N/c2c(O)ccc3ccccc23)cc2c(S(=O)(=O)O)cccc12 ... f
COc1ccc(C2=C(OC(C)=O)c3cccn3-c3ccccc3S2)cc1 ... f
CC1(C)CC(=O)c2c(nc3c4c([nH]c(-c5ccc([N+](=O)[O-])cc5)c24)CC(C)(C)C3)C1 ... f
Oc1ccc(C(=C(Br)c2ccccc2)c2ccc(O)cc2)cc1 ... f

Proceed to the following item.
IN: What is the recorded call for this compound in the test? CCC(=O)OCN(C)c1nc(N(C)COC(=O)CC)nc(N(C)COC(=O)CC)n1
OUT: f

---

# Test system: KM-20L2
# procedure details: NCI tumour cell line growth inhibition, 48 h
Activity calls are given as the source filed them. No stated cut-off is given here; in the data, active = GI50 up to about 1.1 µM and inactive = higher.
quantity kind: GI50

C[C@]12CC[C@H](OC3OC(CO)C(O)C(O)C3O)C[C@H]1CC[C@@H]1[C@@H]2CC[C@]2(C)[C@@H](C3=CCOC3=O)CC[C@]12O (stereo not given in full) ... 3.55 µM (inactive)
N#C/C(=C\c1cccc(O)c1)C(N)=O ... > 100 µM (inactive)
CCOC(=O)C1S/C(=N\c2ccc(Cl)cc2Cl)N=C1C (stereo not given) ... > 100 µM (inactive)
CC(CN1CCN(CC(C)Nc2ccnc3cc(Cl)ccc23)CC1)Nc1ccnc2cc(Cl)ccc12 (stereo not given) ... 13.4 µM (inactive)

The recorded GI50 for entry Cc1ccccc1C1=[N+]([O-])c2ccc(Cl)cc2C1=O equals 4.51 µM (inactive)
